target.desc: human SNP variant (S309L) of GPR119 (Homo sapiens, UniProt Q8TDV5, S309L)
Sequence (Q8TDV5 1-335 S309L): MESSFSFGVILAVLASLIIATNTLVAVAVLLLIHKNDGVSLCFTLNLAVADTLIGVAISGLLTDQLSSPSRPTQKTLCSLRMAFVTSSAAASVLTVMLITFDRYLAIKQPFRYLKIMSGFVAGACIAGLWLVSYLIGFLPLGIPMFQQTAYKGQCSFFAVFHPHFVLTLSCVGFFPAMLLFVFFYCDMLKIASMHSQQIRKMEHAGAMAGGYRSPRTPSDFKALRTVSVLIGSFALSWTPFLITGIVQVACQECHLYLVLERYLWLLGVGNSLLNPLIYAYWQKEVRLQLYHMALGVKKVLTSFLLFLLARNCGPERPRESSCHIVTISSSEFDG
protocol.text: GPR119 signaling, cAMP homogenous time resolved fluorescence (HTRF) assay
condition.context: HEK293 Flp-In cells stably transfected with human GPR119 (S309L), HTRF kit
Description: Measurement of GPR119 Signaling Using a Cyclic AMP (cAMP) Homogenous Time Resolved Fluorescence (HTRF) Assay Chinese hamster ovary (CHO) cell lines stably transfected with the permissive guanine nucleotide binding protein alpha 15 (Gals) and murine GPR119 were maintained in DMEM media containing FBS, penicillin-streptomycin, puromycin, and G418 (geneticin). […]
quantity.name: EC50 (nM)
Report as a plain number; the unit nM is understood.

The examples below pair each entry with its known result.
Exam item: Tell me its EC50 on human SNP variant (S309L) of GPR119 (Homo sapiens, UniProt Q8TDV5, S309L): CS(=O)(=O)c1ccc(OCC[C@@H]2C[C@H]2C2CCN(c3nc(C4CC4)no3)CC2)nc1
Marked response: 6.1

Exam item: Tell me its EC50 on human SNP variant (S309L) of GPR119 (Homo sapiens, UniProt Q8TDV5, S309L): CS(=O)(=O)c1ccc(COC[C@H]2C[C@@H]2C2CCN(C(=O)OC3CC3)CC2)cc1
Marked response: 5.7

Exam item: Tell me its EC50 on human SNP variant (S309L) of GPR119 (Homo sapiens, UniProt Q8TDV5, S309L): Cc1nnc(-c2ccc(OCC[C@@H]3C[C@H]3C3CCN(c4ncc(Cl)cn4)CC3)cc2F)o1
Marked response: 8.4

---
Exam item: Tell me its EC50 on human SNP variant (S309L) of GPR119 (Homo sapiens, UniProt Q8TDV5, S309L): CCCc1noc(N2CCC([C@@H]3C[C@H]3CCOc3ccc(S(C)(=O)=O)cn3)CC2)n1
Marked response: 7.9

Exam item: Tell me its EC50 on human SNP variant (S309L) of GPR119 (Homo sapiens, UniProt Q8TDV5, S309L): CC(C)c1noc(N2CCC([C@H]3C[C@@H]3COCc3ccc(S(C)(=O)=O)cc3)CC2)n1
Marked response: 3.8

Exam item: Tell me its EC50 on human SNP variant (S309L) of GPR119 (Homo sapiens, UniProt Q8TDV5, S309L): Cc1cnc(N2CCC([C@H]3C[C@@H]3COCc3ccc(S(C)(=O)=O)cc3)CC2)nc1
Marked response: 7.1

Exam item: Tell me its EC50 on human SNP variant (S309L) of GPR119 (Homo sapiens, UniProt Q8TDV5, S309L): CC1(OC(=O)N2CCC([C@H]3C[C@@H]3COCc3ccc(S(C)(=O)=O)cc3)CC2)CC1
Marked response: 6.4

Exam item: Tell me its EC50 on human SNP variant (S309L) of GPR119 (Homo sapiens, UniProt Q8TDV5, S309L): CCc1cnc(N2CCC([C@H]3C[C@@H]3COCc3ccc(S(C)(=O)=O)cc3)CC2)nc1
Marked response: 1.9

Exam item: Tell me its EC50 on human SNP variant (S309L) of GPR119 (Homo sapiens, UniProt Q8TDV5, S309L): CS(=O)(=O)c1ccc(NCC[C@H]2C[C@@H]2C2CCN(c3ncc(Cl)cn3)CC2)cc1
Marked response: 6.7

Exam item: Tell me its EC50 on human SNP variant (S309L) of GPR119 (Homo sapiens, UniProt Q8TDV5, S309L): CC(C)OC(=O)N1CCC([C@H]2C[C@@H]2COCc2ccc(S(C)(=O)=O)c(F)c2)CC1
Marked response: 5.8

Exam item: Tell me its EC50 on human SNP variant (S309L) of GPR119 (Homo sapiens, UniProt Q8TDV5, S309L): CCS(=O)(=O)c1ccc(COC[C@H]2C[C@@H]2C2CCN(c3ncc(C)cn3)CC2)cc1
Marked response: 5.8
